# Assay name: qHTS Screen of the MIPE 4.0 Collection Against Ewings Sarcoma (RDES) (AID 1259252); note: nearly all actives have a fitted effect of over 35% in size
# Measurement context: RD-ES Ewing sarcoma viability, CellTiter-Glo, 48 h; series mostly up to 45.8 µM
Records with an inconclusive call do not appear. Calls of active or inactive are those of the source. Calls come from the whole dose curve; as a rule, active = well fitted inhibition curve with a large enough effect; inconclusive = small, poorly fitted or top-dose-only effect; inactive = no such curve, though single readings can be large or run the other way.
Outcomes: true (1) (active), false (0) (inactive)

INSERT INTO measurements (compound, label_value) VALUES
  ('C[C@H](NCc1ccc(OCc2cccc(F)c2)cc1)C(N)=O', 'true (1)'),
  ('C#C[C@]1(O)CC[C@@H]2[C@@H]3CCc4cc(O)ccc4[C@H]3CC[C@@]21C', 'true (1)'),
  ('CC(O)(C#Cc1ccc2c(c1)N(c1nc(N)ncc1Cl)CC2)c1nccs1 (stereo unspecified)', 'true (1)'),
  ('CON=C(C(=O)N[C@@H]1C(=O)N2C(C(=O)O)=C(Cn3ccc(=N)n3CCO)CS[C@H]12)c1csc(N)n1', 'false (0)'),
  ('O=C(NCc1ccccc1)[C@H](Cc1ccccc1)NC(=O)[C@@H]1O[C@@H]1C(=O)NCCc1ccc(O)cc1', 'true (1)'),
  ('c1ccc2c(Oc3nc(Nc4ccc(N5CCOCC5)cc4)c4ncn(C5CCCCC5)c4n3)cccc2c1', 'false (0)');

----------
# Assay name: Quantitative High-Throughput drug screen in 47 multiple myeloma cell lines against the NCATS MIPE library collection: PCM6_Riken cell viability assay (AID 1919870); note: nearly all actives have a fitted effect of over 30% in size
# Measurement context: CellTiter-Glo ATP, 48 h; series mostly up to 45.8 µM
Inconclusive results are not listed. Activity calls are given as the source filed them. Calls come from the whole dose curve; as a rule, active = well fitted cell-killing curve with a large enough effect; inconclusive = small, poorly fitted or top-dose-only effect, or effect the other way; inactive = no such curve, though single readings can be large or run the other way.
Outcomes: active, inactive

INSERT INTO results (molecule, label_value) VALUES
  ('C[C@H]1C[C@H]2[C@@H]3CCC4=CC(=O)C=C[C@]4(C)[C@@H]3C(=O)C[C@]2(C)[C@@]1(O)C(=O)CO', 'inactive'),
  ('c1cc(N[C@@H]2CCNC2)nc(-c2cnc3ccc(-c4cn[nH]c4)cn23)c1', 'active'),
  ('N[C@H]1CN(c2c(F)cc3c(=O)c(C(=O)O)cn(C4C[C@@H]4F)c3c2Cl)CC12CC2 (some centres not stated)', 'inactive'),
  ('Cn1cnc2c(F)c(Nc3ccc(Br)cc3F)c(C(=O)NOCCO)cc21', 'inactive'),
  ('c1cncc(CN2CCC(n3ncc4c(N5CCOCC5)nc(-c5ccc6[nH]ccc6c5)nc43)CC2)c1', 'active'),
  ('COc1cccc2c1C(=O)c1c(O)c3c(c(O)c1C2=O)C[C@@](O)(C(C)=O)C[C@H]3O[C@H]1C[C@H](N)[C@H](O)[C@H](C)O1', 'active'),
  ('CN(C)c1ccc2cc(C(=O)N[C@@H](CCCN=C(N)CCl)C(=O)NCc3ccccc3)ccc2c1', 'active');

----------
# Assay name: Quantitative High-Throughput drug screen in 47 multiple myeloma cell lines against the NCATS MIPE library collection: Delta47_JCRB cell viability assay (AID 1918925; note: nearly all actives have a fitted effect of over 45% in size)
# Measurement context: Delta47 myeloma viability, CellTiter-Glo ATP, 48 h; series mostly up to 45.8 µM
Results filed as inconclusive are left out. Active and inactive are the calls of the source. The call rests on the fitted dose curve; in most records, active means well fitted cell-killing curve with a large enough effect; inconclusive means small, poorly fitted or top-dose-only effect, or effect the other way; inactive means no such curve, though single readings can be large or run the other way.
Outcomes: 1 (active), -1 (inactive)

INSERT INTO results (compound, label_value) VALUES
  ('NC(=O)Nc1cc(-c2ccc(CN3CCOCC3)cc2)sc1C(N)=O', 1),
  ('CC(C)C[C@H](NC(=O)CNC(=O)c1cc(Cl)ccc1Cl)B1OC(=O)CC(CC(=O)O)(C(=O)O)O1 (stereo not given in full)', 1),
  ('COc1cc(C[C@@H](CO)[C@H](CO)Cc2ccc(O)c(OC)c2)ccc1O', 1),
  ('CN(N=O)C(=O)N[C@H]1C(O)OC(CO)[C@@H](O)[C@H]1O (stereo not given in full)', -1),
  ('Cc1cnc(Nc2ccc(N3CCN(C)CC3)cc2)nc1Nc1cccc(S(=O)(=O)NC(C)(C)C)c1', 1),
  ('Oc1ccc(-c2ccc(-c3cc(Nc4cccc(CNC5CC5)c4)n[nH]3)cc2)c(O)c1', 1),
  ('CCCCCCCCc1ccc(CCC(N)(CO)CO)cc1', 1),
  ('N#Cc1c(NC(=O)c2cccc3ccccc23)sc2c1CCCC2', 1),
  ('Oc1cc(-c2nc(-c3ccccc3)[nH]c2-c2ccncc2)ccc1Cl', 1),
  ('CC(C)NC[C@@H](C(=O)N1CCN(c2ncnc3c2[C@H](C)C[C@H]3O)CC1)c1ccc(Cl)cc1', 1);

----------
# Assay name: qHTS of pediatric cancer cell lines to identify multiple opportunities for drug repurposing: Primary screen for NB-EBc1 cells (AID 1347095); note: potency is the fitted concentration of half-maximal effect
# Measurement context: NB-EBc1 neuroblastoma viability, CellTiter-Glo luminescence, 48 h; series mostly up to 46 µM
Records with an inconclusive call do not appear. Activity calls are given as the source filed them. Calls follow the shape of the dose curve; as a rule, active = well fitted cell-killing curve with a large enough effect; inconclusive = small, poorly fitted or top-dose-only effect; inactive = no such curve, though single readings can be large or run the other way.
Assay endpoint: Potency

INSERT INTO assay_data (compound, assay_endpoint, observed) VALUES
  ('CC(C)c1cc(C(C)C)c(CC(=O)NS(=O)(=O)Oc2c(C(C)C)cccc2C(C)C)c(C(C)C)c1', 'Potency', '14.8 µM (active)'),
  ('COc1cc(C)c(Sc2cnc(NC(=O)c3ccc(CNC(C)C(C)(C)C)cc3)s2)cc1C(=O)N1CCN(C(C)=O)CC1 (stereo not drawn)', 'Potency', '0.743 µM (active)'),
  ('CC(C)(N)c1ccc(-c2nc3ccccc3nc2-c2ccccc2)cc1', 'Potency', '18.7 µM (active)');
